Tested on: OVCAR-8 ovarian
Experiment: NCI tumour cell line growth inhibition, 48 h
For each of the molecules below, state its TGI.

[Q] Notebook entry, OVCAR-8 ovarian assay: TGI of CCN(CC)CCCNc1ccc([N+](=O)[O-])c2nc3ccc(OC)cc3c(N)c12 = ?
[A] 5.6 µM

[Q] Lab request: please report TGI under test system OVCAR-8 ovarian for CC1=C[C@@H](C)C[C@]2(C)CC[C@H](O2)[C@]23CC[C@](CO)(C[C@H](O2)[C@@H]2O[C@@](C)(CC2=O)[C@@H](O)[C@H]2CC[C@@]4(CCC[C@@H](O4)[C@H](C)C(=O)O[C@H]4C[C@H]([C@]5(O)OCC[C@H](C)[C@@H]5O)O[C@H]4C=C1)O2)O3
[A] > 4.19 µM

[Q] Recorded TGI for O=C(Nc1ccccc1C(F)(F)F)c1ccc(NC2=C(Cl)C(=O)N(Cc3ccccc3)C2=O)cc1 with OVCAR-8 ovarian, please?
[A] > 100 µM

[Q] Lab note: need TGI with OVCAR-8 ovarian for entry Cc1ccc(NC(=O)CSc2nnc(Cc3ccccc3)o2)cc1 , please look it up.
[A] > 100 µM

[Q] Hello, I am looking for reported TGI with OVCAR-8 ovarian for O=C1c2cccnc2C(=O)c2c1c(C(=O)NCCn1ccnc1)c1ccccn21 . Could you help?
[A] 8.06 µM

[Q] Provide value of TGI for this record tested with OVCAR-8 ovarian: CCCCCCCCCCCCCCCCCCOc1ccccc1CC(=O)OCC[N+](CC)(CC)CC
[A] 8.3 µM

[Q] Short answer please: TGI, OVCAR-8 ovarian, entry O=C(O)c1c(Cl)c(Cl)c(Cl)c(Cl)c1C(=O)Nc1ccc2cn[nH]c2c1
[A] > 100 µM

[Q] Entry C[C@@]1(Cc2ccccc2)C(=O)N2[C@@H](CO)C(c3ccccc3)O[C@]2(C)c2ccccc21 (stereo partly drawn) , system OVCAR-8 ovarian: what TGI was measured?
[A] > 100 µM

[Q] For OVCAR-8 ovarian, provide TGI of CCOC(=O)c1nc2ccc(C(F)(F)F)cc2nc1Nc1ccc(F)cc1 please.
[A] > 100 µM

[Q] Lookup: TGI / OVCAR-8 ovarian / Cc1cc(S(=O)(=O)Nc2n[nH]c(Nc3ccc4ccccc4c3)n2)c(S)cc1Cl
[A] > 100 µM

[Q] Hi! What's the reported TGI for O=C(Cc1ccc([N+](=O)[O-])c([N+](=O)[O-])c1CC(=O)C(=O)Nc1cc(Cl)ccc1Cl)C(=O)Nc1cc(Cl)ccc1Cl on OVCAR-8 ovarian?
[A] > 100 µM

[Q] Given the entry CSC1=C(C(=O)Nc2ccc(C)cc2)C(N)=NC1=O , what TGI was observed with OVCAR-8 ovarian?
[A] > 100 µM

[Q] Provide the documented TGI with OVCAR-8 ovarian as the system for COC1CC(C)([N+](=O)[O-])C(O)C(C)O1 (stereo not drawn)
[A] > 100 µM

[Q] # get_value(readout= TGI, system= OVCAR-8 ovarian) for O=C(CC(c1ccccc1)C1C(=O)NC(=S)NC1=O)c1ccc([N+](=O)[O-])cc1 (stereo not drawn)
[A] > 100 µM

[Q] # query: TGI | item O=C1C=CC(=Nc2cccc3c(N=C4C=CC(=O)O4)cccc23)O1 | system: OVCAR-8 ovarian
[A] 41.1 µM

[Q] Request - read-out TGI | tested on OVCAR-8 ovarian | molecule COc1ccc(-c2ccccc2)c2[nH]c3c(c12)CCNC3=O
[A] > 100 µM

[Q] Lab note: need TGI with OVCAR-8 ovarian for entry CCCCCCCCCCSC(=O)NC , please look it up.
[A] 87.7 µM

[Q] Provide value of TGI for this record tested with OVCAR-8 ovarian: COC(=O)C1=C(OC(=O)/C=C/c2ccc(Cl)cc2)C(C(=O)OC)[C@]2(O)[C@@H](C(=O)OC)[C@H]1C[C@@H](c1ccccc1)[C@@H]2C(=O)OC (stereo partly drawn)
[A] > 30.7 µM
